assay: Clearance in Han Wistar rat at 3.1 umol/kg, iv; assay type: ADME, organism-based; conditions: in vivo
Recorded Metric: clearance (mL/min/kg)
One number for each entry, in mL/min/kg.

Requested read-out: clearance. Entry: N#CC1(COc2nc(C3CC3)c(C(=O)N[C@H]3C4CC5CC3C[C@](O)(C5)C4)s2)CC1
16

###

test: Ratio of total drug level in brain to blood in Han Wistar rat at 30 mg/kg, po measured at 1 hr by LC-MS/MS analysis; assay type: ADME, organism-based; parameters: dose 30 mg/kg, route oral; conditions: read-out: BBR
Recorded Metric: Kp at 1 h
One number for each entry.

Compound	Kp at 1 h
COc1c(C(=O)NC2C3CC4CC2CC(O)(C4)C3)cnn1C (stereo not given)	0.1

Items follow; give Kp at 1 h for each.
1. COC[C@H](C)Oc1nc([C@H]2CCCO2)c(C(=O)NC2C3CC4CC2CC(O)(C4)C3)s1 (stereo not given in full)
2. COc1nc(C2CC2)c(C(=O)N[C@H]2C3CC4CC2C[C@](O)(C4)C3)s1
3. Cc1nc(C2CC2)c(C(=O)N[C@H]2C3CC4CC2C[C@](O)(C4)C3)s1

[0.9, 1.8, 1.6]
